# System: L1210 leukemia ip in BDF1 mice, survival T/C
# experiment.notes: NCI In Vivo Anticancer Drug Screen. Data for tumor model L1210 Leukemia (intraperitoneal) in B6D2F1 (BDF1) mice
# setup.conditions: endpoint: mean survival time; dose: 50.0 mg/kg/injection; schedule: Q01DX009 (ip); vehicle: Klucel (hydroxypropylcellulose) (HPC); higher = longer survival
Inconclusive results and toxic doses are left out.
T/C for assorted compounds

Need T/C, item `O=C1/C(=C\c2ccccn2)CCCc2ccccc21` 98 % of control

Need T/C, item `O=C(CNC(=O)c1ccc(Cl)c(Cl)c1)N/N=C/c1ccc(Cl)cc1` 93 % of control

Need T/C, item CC(C)=CCN(CC=C(C)C)CCC(C#N)(c1ccc2ccccc2c1)C(C)C (stereo unspecified) 106 % of control

Need T/C, item `CCN(CC)c1ccc(NC(C)=O)cc1` 95 % of control

Need T/C, item `CC1=CC(=C(c2ccccc2)c2ccccc2)C=C(C)C1=O` 97 % of control

Need T/C, item `O=C(NC(=S)Nc1cccc(Cl)c1)c1ccccc1F` 86 % of control

----------
# Tested on: L1210 leukemia ip in BDF1 mice, survival T/C
# experiment.notes: NCI In Vivo Anticancer Drug Screen. Data for tumor model L1210 Leukemia (intraperitoneal) in B6D2F1 (BDF1) mice
# setup.conditions: endpoint: mean survival time; dose: 100.0 mg/kg/injection; schedule: Q01DX001 (ip); vehicle: other
Toxic doses and inconclusive results are not listed. No stated cut-off is given here; in the data, active means T/C of 150% or more; inactive means T/C below 125%.
Answer with one of the outcomes yes for active, no for inactive

Some entries whose results are on file:
Give the logged outcome of this assay for the following compound: `CCCCCCCCCCCCCCCCCC(=O)C(C(=O)OCC)C(=O)OCC` no

Give the logged outcome of this assay for the following compound: `O=C(CCCC(=O)N/N=C/c1ccc2ccccc2n1)N/N=C\c1ccc2ccccc2n1` no

Give the logged outcome of this assay for the following compound: CC1CCC2(NC1)OC1CC3C4CCC5CC(O)CCC5(C)C4CCC3(C)C1C2C (stereo not given) no

Now for a further compound.
Give the logged outcome of this assay for the following compound: `O=C(Nc1ccccc1)c1cc(Cl)cc(Cl)c1Br` no

----------
# Test system: L1210 leukemia ip in BDF1 mice, survival T/C
# experiment.notes: NCI In Vivo Anticancer Drug Screen. Data for tumor model L1210 Leukemia (intraperitoneal) in B6D2F1 (BDF1) mice
# setup.conditions: endpoint: mean survival time; dose: 400.0 mg/kg/injection; schedule: Q01DX009 (ip); vehicle: Klucel (hydroxypropylcellulose) (HPC); higher = longer survival
Inconclusive results and toxic doses are left out.
T/C for assorted compounds

Find T/C (L1210 leukemia ip in BDF1 mice, survival T/C) for the entry `CC(=O)c1cccc(NC(=O)N(C)Cc2ccccc2)c1` 112 % of control

Next:
Find T/C (L1210 leukemia ip in BDF1 mice, survival T/C) for the entry `CO/N=C(\N)Oc1c(C)cccc1C` 103 % of control

Find T/C (L1210 leukemia ip in BDF1 mice, survival T/C) for the entry `CCOc1cc(/C=N\N=C\c2ccc(O)c(OCC)c2)ccc1O` 88 % of control

Find T/C (L1210 leukemia ip in BDF1 mice, survival T/C) for the entry COc1ccc(OCCS(=O)(=O)C(CCOS(C)(=O)=O)COS(C)(=O)=O)cc1 (configuration not stated) 98 % of control

Find T/C (L1210 leukemia ip in BDF1 mice, survival T/C) for the entry `CCOc1c(Cl)c(Cl)c(Cl)c(Cl)c1Cl` 91 % of control

Find T/C (L1210 leukemia ip in BDF1 mice, survival T/C) for the entry `COC(=O)c1ccc(C(=O)O)cc1[N+](=O)[O-]` 90 % of control

Find T/C (L1210 leukemia ip in BDF1 mice, survival T/C) for the entry CCOC(=O)C1(C(=O)OCC)NC(=O)CC1c1ccccc1 (configuration not stated) 92 % of control

Find T/C (L1210 leukemia ip in BDF1 mice, survival T/C) for the entry `CCOc1ccccc1NC(=O)Nc1cccc2ccccc12` 102 % of control

Find T/C (L1210 leukemia ip in BDF1 mice, survival T/C) for the entry CCCCC(O)CCC (configuration not stated) 95 % of control

Find T/C (L1210 leukemia ip in BDF1 mice, survival T/C) for the entry `COc1ccc(NC(=O)Nc2ccc(Cl)cc2)cc1` 93 % of control

Find T/C (L1210 leukemia ip in BDF1 mice, survival T/C) for the entry `O=C(Nc1ccccc1Cl)Oc1ccccc1Cc1ccccc1` 115 % of control

Find T/C (L1210 leukemia ip in BDF1 mice, survival T/C) for the entry `CCOC(=O)/C=C/C(=O)OCC` 108 % of control

Find T/C (L1210 leukemia ip in BDF1 mice, survival T/C) for the entry CC(=O)CC1(O)C(=O)Nc2ccccc21 (configuration not stated) 98 % of control

Find T/C (L1210 leukemia ip in BDF1 mice, survival T/C) for the entry Oc1ccc(C2CCc3ccccc32)cc1 (configuration not stated) 95 % of control

Find T/C (L1210 leukemia ip in BDF1 mice, survival T/C) for the entry `COc1ccc(OC)c(NC(=S)Nc2ccccc2)c1` 92 % of control

Find T/C (L1210 leukemia ip in BDF1 mice, survival T/C) for the entry `CC(C)(C)NO` 101 % of control

Find T/C (L1210 leukemia ip in BDF1 mice, survival T/C) for the entry `Nc1ncnc(N)c1NC(=O)c1ccc(SCc2ccccc2)cc1` 88 % of control

Find T/C (L1210 leukemia ip in BDF1 mice, survival T/C) for the entry CCOc1ccc(NC(=O)C(Br)C(Br)c2ccccc2)cc1 (configuration not stated) 91 % of control

Find T/C (L1210 leukemia ip in BDF1 mice, survival T/C) for the entry CC1(C)C2CCC1C(CO)C2 (configuration not stated) 100 % of control

Find T/C (L1210 leukemia ip in BDF1 mice, survival T/C) for the entry `CC1(CCCCCBr)OCCO1` 94 % of control
